system: Polyunsaturated fatty acid lipoxygenase ALOX15 (Oryctolagus cuniculus); note: in other assays of this panel Not Active means under 50% inhibition at 10 µM;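 note: inhibition of 15-lipoxygenase enzyme activity measured with linoleic acid as the substrate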
Sequence (P12530 whole entry): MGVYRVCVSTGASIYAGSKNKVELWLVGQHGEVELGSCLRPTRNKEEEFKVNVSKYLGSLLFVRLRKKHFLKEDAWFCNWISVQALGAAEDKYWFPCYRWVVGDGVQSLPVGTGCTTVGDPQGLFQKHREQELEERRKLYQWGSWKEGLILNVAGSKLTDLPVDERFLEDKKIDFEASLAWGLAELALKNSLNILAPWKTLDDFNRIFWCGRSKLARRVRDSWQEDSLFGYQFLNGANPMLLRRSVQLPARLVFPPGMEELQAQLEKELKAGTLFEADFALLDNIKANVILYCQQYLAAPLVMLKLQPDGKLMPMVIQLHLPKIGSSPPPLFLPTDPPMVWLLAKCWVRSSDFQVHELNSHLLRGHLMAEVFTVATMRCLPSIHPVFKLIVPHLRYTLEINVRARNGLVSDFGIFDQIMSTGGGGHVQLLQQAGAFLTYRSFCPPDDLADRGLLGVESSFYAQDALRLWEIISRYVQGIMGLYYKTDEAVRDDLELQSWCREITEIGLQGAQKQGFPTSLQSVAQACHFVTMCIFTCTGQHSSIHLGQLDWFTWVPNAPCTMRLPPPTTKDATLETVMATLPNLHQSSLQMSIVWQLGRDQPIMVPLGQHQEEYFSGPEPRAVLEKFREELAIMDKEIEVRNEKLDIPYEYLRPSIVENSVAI
experimental-protocol: biochemical
Format: tissue-based, Reticulocytes
condition-parameters: read-out: IC50
Parameter: log10(IC50). Scope: all listed entries.
measured-endpoint: log10(IC50) (log10 of the value in µM)

{"columns": ["compound", "log10(IC50)"],
 "data": [
  ["COc1cc(/C=C/C(=O)O)ccc1O [FERULATE]", 0.60],
  ["Cc1ccc(S(=O)(=O)NC(=O)NN2CCCCCC2)cc1 [TOLAZAMIDE]", 0.71],
  ["CCN(CC)C(=S)SSC(=S)N(CC)CC", 1.21],
  ["CC#C[C@]1(O)CC[C@H]2[C@@H]3CCC4=CC(=O)CCC4=C3[C@@H](c3ccc(N(C)C)cc3)C[C@@]21C", -0.26],
  ["CNC[C@H](O)c1ccc(O)c(O)c1 [EPINEPHRINE]", 0.52],
  ["c1ccc2c(c1)Nc1ccccc1S2", 0.67],
  ["O=C(OC[C@H]1O[C@@H](OC(=O)c2cc(O)c(O)c(OC(=O)c3cc(O)c(O)c(O)c3)c2)[C@H](OC(=O)c2cc(O)c(O)c(OC(=O)c3cc(O)c(O)c(O)c3)c2)[C@@H](OC(=O)c2cc(O)c(O)c(OC(=O)c3cc(O)c(O)c(O)c3)c2)[C@@H]1OC(=O)c1cc(O)c(O)c(OC(=O)c2cc(O)c(O)c(O)c2)c1)c1cc(O)c(O)c(OC(=O)c2cc(O)c(O)c(O)c2)c1", -0.57],
  ["Cc1cc2c(s1)Nc1ccccc1N=C2N1CCN(C)CC1", 0.44],
  ["CC(C)(c1ccc(O)cc1)c1ccc(O)cc1", 0.11]
]}

###

system: Adenosine receptor A3 (Homo sapiens, UniProt P0DMS8); note: in other assays of this panel Not Active means under 50% inhibition at 10 µM;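 note: radioligand binding assay with AB-MECA serving as the labeled ligand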
Sequence (P0DMS8 whole entry): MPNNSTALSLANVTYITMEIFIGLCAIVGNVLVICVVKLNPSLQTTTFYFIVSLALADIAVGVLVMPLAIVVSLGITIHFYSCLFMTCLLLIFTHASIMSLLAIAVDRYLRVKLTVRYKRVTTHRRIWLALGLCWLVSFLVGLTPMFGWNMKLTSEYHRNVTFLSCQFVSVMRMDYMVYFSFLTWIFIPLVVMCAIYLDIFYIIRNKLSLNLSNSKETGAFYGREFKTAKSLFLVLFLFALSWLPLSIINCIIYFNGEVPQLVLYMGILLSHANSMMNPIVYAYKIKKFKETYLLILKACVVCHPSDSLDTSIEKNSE
Type: cell membranes, CHO-K1, Membrane
condition-parameters: cho-k1
measured-endpoint: IC50

{"columns": ["substance", "measured-endpoint", "data-value"],
 "data": [
  ["LEAD(IV) ACETATE", "IC50", "Not Active"],
  ["POVIDONE", "IC50", "Not Active"],
  ["COPPER(II) OXIDE", "IC50", "Not Active"],
  ["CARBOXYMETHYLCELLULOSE", "IC50", "Not Active"],
  ["CHROMIC CHLORIDE", "IC50", "Not Active"]
]}

Cited source: ChEMBL document CHEMBL1909046
